- Test system: UACC-62 melanoma
- protocol.details: NCI tumour cell line growth inhibition, 48 h
# if value of TGI reaches 5 µM, tag 1.0; if it stays below, tag 0.0

- compound: "CC(O)(c1ccccc1)c1nccc2ccccc12 (configuration not stated)"
  category.label: 1.0
- compound: "CC(NC(=O)C(C)C(=O)NCc1ccc(C(F)(F)F)cc1)C(N)=O (configuration not stated)"
  category.label: 1.0
- compound: "CCOC(=O)CNC(SC)=C(C#N)C#N"
  category.label: 1.0
- compound: "Cn1cc(-c2csc(-c3cn(CCN4CCOCC4)c4ccc(F)cc34)n2)c2cccnc21"
  category.label: 1.0
- compound: "Cc1cc(=O)c2c(O)c3c(O)cc(O)c4c5c(O)cc(O)c6c(O)c7c(=O)cc(C)c8c1c2c(c34)c(c65)c78"
  category.label: 1.0
- compound: "COc1ccc(C(=O)Nc2ncc(Cc3ccc(F)cc3)s2)cc1"
  category.label: 1.0
- compound: "COc1ccc2oc(-c3ccncc3)cc(=O)c2c1"
  category.label: 1.0
- compound: "Cc1ccnc(NC(=S)Nc2ccccc2Cl)c1"
  category.label: 1.0
- compound: "ClCc1c(-c2ccccc2)nn(-c2ccccc2)c1CCl"
  category.label: 1.0
- compound: "COc1cc2c(cc1OCCCCCCNC(=O)c1cc3ccccc3[nH]1)N=CC1CCCN1C2=O (configuration not stated)"
  category.label: 1.0
- compound: "NCCCn1c2c(c3ccc([N+](=O)[O-])cc3c1=O)C(=O)c1cc3c(cc1-2)OCO3"
  category.label: 0.0
- compound: "CC(C)C(/C=C/c1ccccc1)=N\\NC(=O)N/N=C(/C=C/c1ccccc1)C(C)C"
  category.label: 1.0
- compound: "O=C1CC(c2ccccc2)Cc2nc3ccc(Cl)cc3cc21 (configuration not stated)"
  category.label: 1.0
- compound: "Cc1sc2nc(-c3ccccn3)c(/C=N/N=C(N)N)n2c1C"
  category.label: 1.0
- compound: "NC1=CC(=O)C(=O)c2cccnc21"
  category.label: 0.0
- compound: "CC(=O)OCCC/C(=C\\c1ccc2ccccc2c1)[N+](=O)[O-]"
  category.label: 0.0
- compound: "OC(COc1ccc(Cl)cc1Cl)CN1CCCC1 (configuration not stated)"
  category.label: 1.0
- compound: "Cc1cccc2c(N)c3cccc(C(=O)NCC[N+](C)(C)Cc4sc(N5CCOCC5)nc4[N+](=O)[O-])c3nc12"
  category.label: 1.0
- compound: "COc1cc(C2c3cc4c(cc3C3OC(=O)C2C3CO)OCO4)cc(OC)c1OC (configuration not stated)"
  category.label: 1.0
- compound: "O=[N+]([O-])c1cccc2nc3ccccc3c(NCCC[N+]3([O-])CCCCC3)c12"
  category.label: 0.0
- compound: "c1ccc(Cn2cc3c(c2)-c2oncc2CC3)cc1"
  category.label: 1.0
- compound: "Oc1c(I)cc(I)cc1CNCCCN(Cc1ccccn1)Cc1ccccn1"
  category.label: 0.0

---

- Test system: COLO 205 colon
- protocol.details: NCI tumour cell line growth inhibition, 48 h
This section presents molecules with their documented TGI values.
reported.property: TGI

- molecule: "c1ccc([C@H]2CN3CCSC3=N2)cc1"
  recorded.measurement: "> 100 µM"
- molecule: "Clc1ccccc1-c1nc2ccccc2[nH]1"
  recorded.measurement: "> 100 µM"
- molecule: "COc1ccc(/C=C/c2nc(N3CCOCC3)c3cc(F)c(F)cc3n2)cc1OC"
  recorded.measurement: "20.7 µM"
- molecule: "O=C1OCC2=C1C(c1cccc(F)c1)c1cc3c(cc1N2CCO)OCCO3 (stereo unspecified)"
  recorded.measurement: "7.43 µM"
- molecule: "Cc1ccc(O)c(Cc2nc3ccccc3nc2-c2cccc(Br)c2)c1"
  recorded.measurement: "> 100 µM"
- molecule: "Cn1c(=O)c(C(c2ccccc2)c2c(O)c3ccccc3n(C)c2=O)c(O)c2ccccc21"
  recorded.measurement: "> 100 µM"
